- assay_notes: In vitro metabolic conversion assay using human liver S9 fractions
- Assay type: in vitro ADME
- stated_conditions: 10 μM, 37° C., 60 minutes, LC/MS/MS, not quantitatively monitored

chemical_string: CCOC(=O)Nc1ccn([C@@H]2O[C@H](COC(=O)CCCCCCC(=O)Nc3ccccc3)[C@@H](O)C2(F)F)c(=O)n1
Formation of Gemcitabine: ✓
//
chemical_string: Nc1ccn([C@@H]2O[C@H](COC(=O)CCc3ccccc3)[C@@H](O)C2(F)F)c(=O)n1
Formation of Gemcitabine: ✓
//
chemical_string: CCOC(=O)Nc1ccn([C@@H]2O[C@H](CO)[C@@H](OC(=O)CCCCCCC(=O)Nc3ccccc3)C2(F)F)c(=O)n1
Formation of Gemcitabine: ✓
//
chemical_string: CCOC(=O)Nc1ccn([C@@H]2O[C@H](CO)[C@@H](OC(=O)CCc3cccnc3)C2(F)F)c(=O)n1
Formation of Gemcitabine: ✓
//
chemical_string: CCOC(=O)Nc1ccn([C@@H]2O[C@H](COC(=O)CCc3ccccc3)[C@@H](O)C2(F)F)c(=O)n1
Formation of Gemcitabine: ✓
//
chemical_string: Nc1ccn([C@@H]2O[C@H](COC(=O)CCCCC(=O)Nc3ccccc3)[C@@H](O)C2(F)F)c(=O)n1
Formation of Gemcitabine: ✓
//
chemical_string: CCOC(=O)Nc1ccn([C@@H]2O[C@H](CO)[C@@H](OC(=O)CCc3ccccc3)C2(F)F)c(=O)n1
Formation of Gemcitabine: ✓
//
chemical_string: CCOC(=O)Nc1ccn([C@@H]2O[C@H](COC(=O)CCCCC(=O)Nc3ccccc3)[C@@H](O)C2(F)F)c(=O)n1
Formation of Gemcitabine: ✓
//
chemical_string: CCOC(=O)Nc1ccn([C@@H]2O[C@H](COC(=O)CCc3cccnc3)[C@@H](O)C2(F)F)c(=O)n1
Formation of Gemcitabine: ✓
